Test system: HEK-Blue IL-2 reporter cells, IL-2-stimulated STAT5 SEAP reporter
Assay: HEK-Blue IL-2 reporter assay (SEAP) for determining selectivity
Format: cell-based
Conditions: 4 ng/mL human recombinant IL-2, SEAP readout, read-out: IL-2 (SEAP selectivity, IC50 class)
In this section we review reported IC50 values for a set of compounds.

The cases that follow already have their IC50 on record.
| Item Smiles | IC50 |
| --- | --- |
| [2H]C([2H])([2H])NC(=O)c1nnc(NC(=O)[C@H]2C[C@H]2F)cc1Nc1nccc2c1N(C)Cc1nn(C)nc1-2 | 300 to 1000 nM |
| [2H]C([2H])([2H])NC(=O)c1nnc(NC(=O)C2CC2)cc1Nc1nccc2c1N(C)[C@@H](C)c1nc(C)nn1-2 | > 1000 nM |

# evaluate next
Input line: Item under review: "[2H]C([2H])([2H])NC(=O)c1nnc(NC(=O)C2CC2)cc1Nc1nccc2c1N(C)[C@H](C([2H])([2H])[2H])c1nn(C)nc1-2" . Reported IC50?
Output line: > 1000 nM
